Test Target: FAD-linked sulfhydryl oxidase ALR (Homo sapiens, UniProt P55789)
Sequence (P55789 whole entry): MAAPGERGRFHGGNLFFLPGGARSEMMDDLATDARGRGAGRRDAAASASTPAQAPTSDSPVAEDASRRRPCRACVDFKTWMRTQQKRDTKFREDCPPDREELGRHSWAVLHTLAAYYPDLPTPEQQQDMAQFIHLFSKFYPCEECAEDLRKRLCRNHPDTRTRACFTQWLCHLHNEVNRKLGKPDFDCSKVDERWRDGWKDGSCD
Protocol: ALR-catalysed DTT oxidation blockers – biochemical, H2O2 detection, luminescence, cherry-pick, dose response (AID 493248)
The source made the active and inactive calls.
AC50 by entry:

Past entries and their recorded results:
Oc1ccc(-c2nc(-c3ccc(O)c(O)c3)cs2)cc1    1220 nM (active)
O=C(N/N=C/c1cccc(O)c1)N/N=C/c1cccc(O)c1    797 nM (active)
Cc1ccc(NC(NC(=O)c2ccccn2)C(Cl)(Cl)Cl)cc1 (stereo unspecified)    731 nM (active)
Nc1ccc2oc(-c3cccs3)nc2c1    155 nM (active)

Sample `Cc1ccc(-n2c(-c3ccc(Cl)cc3)n[nH]c2=S)c(C)c1` — what was its AC50?
2080 nM (active)

Sample `COc1cc(-c2csc(CCn3nc(C)cc3C)n2)cc(OC)c1OC` — what was its AC50?
59 nM (active)

====

IC50 by entry:
Protocol: cells
Format: functional
Calls of active or inactive are those of the source.

COc1ccc(C(=O)N/N=C(\c2ccccc2)c2ccccn2)cc1    8.09 µM (active)
OC(COc1ccc2ccccc2c1Br)Cn1ccnc1 (stereo not drawn)    14.3 µM (active)

// next item, IC50 requested
Sample `COC(=O)COc1ccc2c(-c3cccc([N+](=O)[O-])c3)cc(=O)oc2c1` — what was its IC50?
2.9 µM (active)

====

List of AC50 tested on Cytochrome P450 2C9 (Homo sapiens, UniProt P11712).
Sequence (P11712 whole entry): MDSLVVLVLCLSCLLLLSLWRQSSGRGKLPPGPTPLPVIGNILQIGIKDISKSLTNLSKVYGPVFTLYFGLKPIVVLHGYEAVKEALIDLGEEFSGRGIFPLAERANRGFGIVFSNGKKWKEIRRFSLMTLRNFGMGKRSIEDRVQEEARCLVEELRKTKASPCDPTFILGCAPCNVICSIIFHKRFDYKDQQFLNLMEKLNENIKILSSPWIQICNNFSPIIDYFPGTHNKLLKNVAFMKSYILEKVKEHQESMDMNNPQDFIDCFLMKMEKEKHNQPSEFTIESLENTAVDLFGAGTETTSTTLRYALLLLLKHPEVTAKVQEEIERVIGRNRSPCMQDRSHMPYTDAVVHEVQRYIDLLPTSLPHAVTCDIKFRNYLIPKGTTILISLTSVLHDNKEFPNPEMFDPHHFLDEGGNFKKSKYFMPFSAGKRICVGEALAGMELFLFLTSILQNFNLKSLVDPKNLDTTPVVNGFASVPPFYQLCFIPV

Past entries and their recorded results:
COc1cccc(-c2nc(NCc3ccccc3OC)c3ccccc3n2)c1    1 µM (inconclusive)
Cn1c(=O)c(CCc2ccccc2)nc2cnc(N3CCNCC3)nc21    25.1 µM (inconclusive)
Cc1nn(-c2ccccc2)c(N2CCCCC2)c1/C=N/O    7.08 µM (inconclusive)
Cc1ccc(-c2nc3ccccc3c(=O)n2-c2ncccc2C)cc1    17.8 µM (inconclusive)
COc1cccc(C2=NOC(C(=O)Nc3cccnc3)C2)c1 (stereo unspecified)    25.1 µM (inconclusive)

// next item, AC50 requested
Which AC50 is reported with Cytochrome P450 2C9 (Homo sapiens, UniProt P11712) for this entry: CC1(C)CC(=O)C2=C(C1)N(Cc1cccnc1)C(=O)C2(NC(=O)c1cccnc1)C(F)(F)F (stereo unspecified) ?
0.0794 µM (inconclusive)

====

Test Target: Heat shock protein HSP 90-alpha (Homo sapiens, UniProt P07900)
Assay type: functional, organism-based
Active and inactive are the calls of the source.
AC50 by entry:

COc1ccc(OC)c2c1C(=O)C(Cl)=C(Cl)C2=O    3.03 µM (active)
Cc1cccc(Nc2nc(N)c([N+](=O)[O-])c(N3CC(C)CC(C)C3)n2)c1 (stereo not given)    7.38 µM (active)
CC1=NN(c2nc3ccccc3[nH]2)C(=O)/C1=C/N(C)C    6.12 µM (active)
Cc1ccc(C2=NC(C)(C)N=C2SCC(=O)Nc2ccc(Cl)cc2)cc1    15.1 µM (active)

// next item, AC50 requested
Which AC50 is reported with Heat shock protein HSP 90-alpha (Homo sapiens, UniProt P07900) for this entry: `O=[N+]([O-])c1ccc(N=Nc2c(Cl)cc(O)cc2Cl)cc1` ?
0.574 µM (active)

====

Test Target: Cytochrome P450 2C19 (Homo sapiens, UniProt P33261)
Sequence (P33261 whole entry): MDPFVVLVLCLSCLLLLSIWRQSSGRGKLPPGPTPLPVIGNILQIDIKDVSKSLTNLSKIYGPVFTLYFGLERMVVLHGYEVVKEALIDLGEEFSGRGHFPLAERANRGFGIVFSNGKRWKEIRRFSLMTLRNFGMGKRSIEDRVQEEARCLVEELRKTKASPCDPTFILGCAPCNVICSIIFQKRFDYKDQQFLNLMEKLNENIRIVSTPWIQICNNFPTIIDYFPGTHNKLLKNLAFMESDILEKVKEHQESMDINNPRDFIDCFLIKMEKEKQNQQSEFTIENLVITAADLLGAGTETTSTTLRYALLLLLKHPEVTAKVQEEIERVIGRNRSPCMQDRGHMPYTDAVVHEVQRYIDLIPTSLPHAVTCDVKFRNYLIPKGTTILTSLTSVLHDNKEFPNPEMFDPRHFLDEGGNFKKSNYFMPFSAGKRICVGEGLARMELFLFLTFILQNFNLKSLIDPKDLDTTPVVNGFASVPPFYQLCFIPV
Protocol: Cytochrome panel assay with activity outcomes. Panel member name: p450-cyp2c19 Compounds with AC50 equal or less than 10 uM are considered active
Type: functional
AC50 by entry:

Past entries and their recorded results:
CCC(CC)C(=O)NCCN1CCN(C(=O)C(CC)CC)CC1    31.6 µM (inconclusive)
COc1cccc2cc(NC(=O)C3CCCCC3)c(=O)oc12    39.8 µM (inconclusive)

// next item, AC50 requested
Which AC50 is reported with Cytochrome P450 2C19 (Homo sapiens, UniProt P33261) for this entry: `CCOc1ccc(NC(=O)c2nnn(CC(=O)Nc3ccccc3OC)c2N)cc1` ?
3.55 µM (inconclusive)

====

Test Target: Corticotropin-releasing factor receptor 2/Corticotropin-releasing factor-binding protein (Homo sapiens, UniProt P24387+Q13324)
Sequence (Q13324 whole entry): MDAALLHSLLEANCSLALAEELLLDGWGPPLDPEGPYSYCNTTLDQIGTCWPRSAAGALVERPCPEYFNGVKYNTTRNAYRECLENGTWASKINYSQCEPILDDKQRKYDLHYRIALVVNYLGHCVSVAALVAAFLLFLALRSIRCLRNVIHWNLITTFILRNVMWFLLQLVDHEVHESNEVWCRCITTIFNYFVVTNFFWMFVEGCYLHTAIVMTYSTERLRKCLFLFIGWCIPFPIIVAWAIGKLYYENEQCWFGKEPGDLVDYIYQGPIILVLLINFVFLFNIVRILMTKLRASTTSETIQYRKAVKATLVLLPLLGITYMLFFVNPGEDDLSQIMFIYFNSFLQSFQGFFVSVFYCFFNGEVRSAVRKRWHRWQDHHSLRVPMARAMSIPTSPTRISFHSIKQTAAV
Sequence (P24387 whole entry): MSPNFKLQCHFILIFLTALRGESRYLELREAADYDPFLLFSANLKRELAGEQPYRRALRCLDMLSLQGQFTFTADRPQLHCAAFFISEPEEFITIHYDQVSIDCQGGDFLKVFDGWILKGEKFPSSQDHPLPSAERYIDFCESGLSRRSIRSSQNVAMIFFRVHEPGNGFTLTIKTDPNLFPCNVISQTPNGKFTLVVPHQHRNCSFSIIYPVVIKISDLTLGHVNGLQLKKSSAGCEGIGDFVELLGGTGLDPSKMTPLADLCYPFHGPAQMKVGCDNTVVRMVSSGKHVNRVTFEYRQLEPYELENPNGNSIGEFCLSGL
Protocol: activators of CRF receptor 2 with binding protein – uHTS hits, confirmation (AID 602473)
Type: functional
Assay Conditions: read-out: EC50_Mean
Active and inactive are the calls of the source.
Give one outcome, nothing more. List: true = active, false = inactive

The following molecules have reported results that may help.
CCN(CC)c1ccc(/C=N\NC(=O)c2cccc3cc[nH]c23)cc1    false
Cc1ccc(C)c2nc3sc(C(=O)N4CCCc5ccccc54)c(N)c3cc12    true
Clc1ccc(Cl)c(Oc2ccc(Oc3nc(Cl)ccc3Cl)cc2)n1    false
Cc1ccc(C(=O)NCCNC(=O)c2ccc(F)cc2)cn1    false

Recorded test outcome, item O=C(NCc1cccs1)c1ccc(C[S+]([O-])Cc2cccc(Cl)c2)o1 (stereo not given)
false

Reference source for all entries: ChEMBL document CHEMBL1201862
